- System: L1210 leukemia ip in BDF1 mice, survival T/C
- EXPERIMENT_NOTES: NCI In Vivo Anticancer Drug Screen. Data for tumor model L1210 Leukemia (intraperitoneal) in B6D2F1 (BDF1) mice
- REPORTED_CONDITIONS: endpoint: mean survival time; dose: 400.0 mg/kg/injection; schedule: Q04DX002 (ip); vehicle: saline with Tween-80; higher = longer survival
Inconclusive results and toxic doses are left out.
METRIC_NAME: T/C

QUERY: Could you share what T/C was measured for C1=CC2(CCC13CS3)CS2 (stereo unspecified) , tested on L1210 leukemia ip in BDF1 mice, survival T/C?
RESULT: 91 % of control

QUERY: Could you do the same for `O=[N+]([O-])c1ccc(/C=C/c2nnc(/C=C/c3ccc([N+](=O)[O-])cc3)o2)cc1` , please?
RESULT: 100 % of control

QUERY: One more molecule: `CCCCC(CCCC)(C(=O)OCCOCCCl)c1cccc2ccccc12`
RESULT: 99 % of control

QUERY: Would you kindly repeat that for CCOP(=O)(OCC)OC(C)CC (stereo unspecified) ?
RESULT: 106 % of control

QUERY: Same question, `O=[N+]([O-])c1ccc(/C([O-])=C(\C(=S)Nc2ccccc2Cl)[n+]2ccccc2)cc1` this time
RESULT: 96 % of control

QUERY: Again, but for `Cn1c(C(O)(Cc2ccccn2)Cc2ccccn2)cc2ccccc21`
RESULT: 97 % of control

QUERY: Next up: `O/N=C/c1cccc(CC(O)(C(F)(F)F)C(F)(F)F)n1`
RESULT: 106 % of control

QUERY: Lookup `Cc1ccc(S(=O)(=O)NNc2c3ccccc3nc3ccc(Cl)cc23)cc1`
RESULT: 97 % of control

QUERY: Let us now turn to `NC(=O)c1c(/N=C/c2ccccc2Cl)sc2c1CCCC2`
RESULT: 91 % of control

QUERY: Do the same for CCOC(=O)C(C(=O)OCC)C(C)c1ccc([N+](=O)[O-])cc1 (stereo unspecified) please
RESULT: 92 % of control

QUERY: // repeat for `ON=C1CCCCC1` and report
RESULT: 102 % of control

###

Exercise: for every item that follows, state its recorded T/C.
- System: L1210 leukemia ip in BDF1 mice, survival T/C
- EXPERIMENT_NOTES: NCI In Vivo Anticancer Drug Screen. Data for tumor model L1210 Leukemia (intraperitoneal) in B6D2F1 (BDF1) mice
- REPORTED_CONDITIONS: endpoint: mean survival time; dose: 200.0 mg/kg/injection; schedule: Q01DX001 (ip); vehicle: other; higher = longer survival
Toxic doses and inconclusive results are not listed.

QUERY: Quick one: T/C of `O=c1[nH]ccc2n[nH]nc12` ?
RESULT: 101 % of control

QUERY: What do you have for CC(C)CC(NS(=O)(=O)Cc1ccccc1)C(=O)O (stereo not drawn) ?
RESULT: 107 % of control

QUERY: Also `O=C(NCCF)NC1CCSCC1` , if possible.
RESULT: 103 % of control

###

Give measured T/C for each item. Keep answers brief.
- Tested on: L1210 leukemia ip in BDF1 mice, survival T/C
- EXPERIMENT_NOTES: NCI In Vivo Anticancer Drug Screen. Data for tumor model L1210 Leukemia (intraperitoneal) in B6D2F1 (BDF1) mice
- REPORTED_CONDITIONS: endpoint: mean survival time; dose: 20.0 mg/kg/injection; schedule: Q01DX009 (ip); vehicle: saline; higher = longer survival
Toxic doses and inconclusive results are not listed.

QUERY: Can you look up the measured T/C of CC1(C)CN1P(=O)(N1CC1(C)C)N1CC1(C)C (configuration not stated) for me?
RESULT: 194 % of control

QUERY: Please answer likewise for `CN(/N=C/c1ccccc1)C(=N)N`
RESULT: 104 % of control

QUERY: Could you do the same for `CC[n+]1c(-c2ccccc2)c2cc(N)ccc2c2ccc(N)cc21` , please?
RESULT: 117 % of control

QUERY: How about this compound: `CCSc1nc(Cl)cc(Sc2nc(N)nc3nc[nH]c23)n1`
RESULT: 115 % of control

QUERY: Can you check CC(Cl)CN(CC(C)Cl)c1ccc(S(=O)(=O)Nc2ncccn2)cc1 (configuration not stated) next?
RESULT: 105 % of control

QUERY: What do we get for `CCCCCCCCCC[n+]1cccc(C#N)c1` ?
RESULT: 93 % of control

QUERY: Then O=C(CC1NCCCC1O)Cn1cnc2cc3c(cc2c1=O)OCO3 (configuration not stated) ?
RESULT: 95 % of control

Origin of values: PubChem BioAssay AID248
